Catalogue of growth values
- Tested on: SF-268 CNS
- assay: NCI-60 one-dose screen, 48 h (100 = growth as untreated, 0 = no growth, -100 = all killed)
- condition-details: 10 µM unless noted
The panel holds about 83,000 compounds, 20% with a hit somewhere; the sample as a whole holds those more often.
The reply should contain only the number, in %.

Using the record for CC(C)(C)OC(=O)N1CCC(O)[C@@H](O[Si](c2ccccc2)(c2ccccc2)C(C)(C)C)[C@H]1/C=C/c1ccccc1 (some centres not stated) , state its measured growth.
52.5

Using the record for `Cn1cc(-c2cnn3c(N)c(Br)c([C@@H]4CCCNC4)nc23)cn1` , state its measured growth.
60.1

====

- System: TK-10 renal
- assay: NCI-60 one-dose screen, 48 h (100 = growth as untreated, 0 = no growth, -100 = all killed)
- condition-details: 10 µM unless noted
The panel holds about 83,000 compounds, 20% with a hit somewhere; the sample as a whole holds those more often.
observed-property: growth (%)
The reply should contain only the number, in %.

Worked cases, growth given:
CC1(O)CCC(Nc2cc(-c3ccc(C(F)(F)F)cc3)c(C#N)c3nc4ccccc4n23)CC1 (stereo not drawn)    71.4
O=C(Cc1ccc(/C=C/C(=O)c2ncc[nH]2)cc1)Nc1ccc(Br)cc1    75.5
Cc1oc2c(C(=O)N/N=C\c3ccc(O)cc3O)c[nH]c2c1C    6.21
COc1ccc(Br)cc1NC(=O)Nc1cccc2c1ccn2Cc1ccnc(N)c1    22.1
Oc1ccc(/C=N/Nc2nnc(N/N=C/c3ccc(O)cc3O)c3ccccc23)c(O)c1    10.5

Using the record for COc1cc(C2CC(c3ccc(Cl)cc3)=NN2c2ccc(Cl)cc2)cc(OC)c1OC (stereo not drawn) , state its measured growth.
98

Using the record for CCCCCCC1(/C=N/NC(N)=O)NC(=O)NC1=O (stereo not drawn) , state its measured growth.
99.1

Using the record for `CCCCCCCCCNCCCCCCCCC` , state its measured growth.
70.4

Using the record for `CCCCCCCC(=O)SCC/C=C/[C@@H]1CC(=O)NCc2cc(ccn2)C2=N[C@@](C)(CS2)C(=O)N[C@@H](C(C)C)C(=O)O1` , state its measured growth.
-15.6

Using the record for `CCCCCC(=O)OCc1ccc(Cl)c(Cl)c1` , state its measured growth.
104

Using the record for `COc1ccc2nc3cc(Cl)ccc3c(Nc3ccc(N(C)C)cc3)c2c1` , state its measured growth.
128

Using the record for `CC(C)[C@@H]1CC[C@@H]2[C@@H]1[C@H](OC(=O)/C=C/c1ccccc1)[C@]1(C(C)C)C[C@@H](OC(=O)CO)[C@@]2(C)O1` , state its measured growth.
94.9

Using the record for CCCC(=O)OCC1OC(n2cnc3c(=S)nc[nH]c32)C(OC(=O)CCC)C1OC(=O)CCC (stereo not drawn) , state its measured growth.
6.59

Using the record for `Cc1cc(N(CCNc2ccnc3cc(Cl)ccc23)Cc2ccc3c(c2)OCO3)nc(N2CCN(C)CC2)n1` , state its measured growth.
-24.9

Using the record for `Nc1nc(N)c2nc(-c3cccc(O)c3)c(-c3cccc(O)c3)nc2n1` , state its measured growth.
80.9

Using the record for `CCN(CCO)CCCOc1ccc2c(Nc3cc(CC(=O)Nc4cccc(F)c4)[nH]n3)ncnc2c1` , state its measured growth.
31.5

Using the record for `CNS(=O)(=O)Nc1nccc(Cc2c(C)c3ccc(Oc4ncccn4)cc3oc2=O)c1F` , state its measured growth.
34.1

Using the record for `CC(C)(C)c1nc(-c2cccc(NS(=O)(=O)c3c(F)cccc3F)c2F)c(-c2ccnc(N)n2)s1` , state its measured growth.
65.2
